TARGET_OF_ASSAY: rat adrenergic α1B receptor (Rattus norvegicus)
Construct: rat adrenergic α1B receptor obtained from Wistar Rat liver; from tissue; host or cells: Wistar rat liver
Sequence (P15823 whole entry): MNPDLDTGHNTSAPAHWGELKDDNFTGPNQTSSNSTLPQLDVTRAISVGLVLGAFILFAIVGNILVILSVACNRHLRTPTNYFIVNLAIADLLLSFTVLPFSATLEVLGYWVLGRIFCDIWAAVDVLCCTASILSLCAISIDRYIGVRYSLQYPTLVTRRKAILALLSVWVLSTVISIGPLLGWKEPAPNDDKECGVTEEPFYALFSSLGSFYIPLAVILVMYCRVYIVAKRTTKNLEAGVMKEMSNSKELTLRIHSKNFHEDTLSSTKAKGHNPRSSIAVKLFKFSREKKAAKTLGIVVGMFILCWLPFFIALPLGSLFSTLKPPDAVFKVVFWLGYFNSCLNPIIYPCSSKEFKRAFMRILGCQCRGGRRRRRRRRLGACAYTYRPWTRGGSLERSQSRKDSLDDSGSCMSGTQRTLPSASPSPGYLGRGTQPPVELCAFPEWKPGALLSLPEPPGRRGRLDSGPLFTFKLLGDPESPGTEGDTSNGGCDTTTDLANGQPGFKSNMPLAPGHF
ASSAY_PROCEDURE: Radioligand binding, adrenergic α1B ([3H]Prazosin)
RUN_CONDITIONS: compound at 0.1 μM; [3H]Prazosin; repeat datapoints each shown; 0.1 µM
Description: To evaluate in radioligand binding assays the activity of compounds of the invention, rat adrenergic α1B receptor obtained from Wistar Rat liver (Garcia-S'ainz, J. et al, Biochem. Biophys. Res. Commun. 186:760, 1992; Michel, A. et al, Br. J. Pharmacol. 98:883, 1989) in a modified Tris-HCl buffer (50 mM Tris-HCl buffer, pH 7.4, 0.5 mM EDTA) was used. […] Receptor proteins were filtered and washed, the filters were then counted to determine [^3H]Prazosin specifically bound. […]
OBSERVABLE: Percentage inhibition of ligand binding, Adrenergic α1B (0.1 μM) (%)
Answers are plain numbers, in %.

MOLECULE	TARGET_OF_ASSAY	MEASUREMENT
Cc1ccc2c(c1)c1c(n2CC(O)c2ccc(C(N)=O)cc2)CCN(C)C1 (single isomer, unassigned) [139b]	rat adrenergic α1B receptor (Rattus norvegicus)	11
COc1ccc(/C(C)=C/n2c3c(c4cc(Cl)ccc42)CCN(C)CC3)cc1F	rat adrenergic α1B receptor (Rattus norvegicus)	75

Could I get Percentage inhibition of ligand binding, Adrenergic α1B (0.1 μM) for every one of these entries?
1. Cc1ccc2c(c1)c1c(n2CC(C)(OCC(=O)O)c2cccnc2)CCN(C)C1 (single isomer, unassigned) [V-14a]
2. CC1Cc2c(c3cc(Cl)ccc3n2CC(C)(O)c2cccnc2)CN1C (single isomer, unassigned) [II-147c]
3. Cc1ccc2c(c1)c1c(n2CC(C)(O)c2cccnc2)CCN(C)C1C (single isomer, unassigned) [II-152d]
4. Cc1cnc2c(c1)c1c(n2CCc2ccc(C(N)=O)nc2)CCN2CCCC12 (stereo not drawn)

Result:
0
7
5
93

Could I get Percentage inhibition of ligand binding, Adrenergic α1B (0.1 μM) for every one of these entries?
1. Cc1cnc2c(c1)c1c(n2CC(O)c2ccncc2)CCN2CCCC12 (single isomer, unassigned) [IV-209c]
2. Cc1cnc2c(c1)c1c(n2CC(C)(O)c2ccc(F)cc2)CCN(C)C1 (single isomer, unassigned) [138b]
3. Cc1ccc2c(c1)c1c(n2CC(N)c2ccncc2)CCN(C)CC1 (single isomer, unassigned) [154a]
4. Cc1ccc2c(c1)c1c(n2CC(C)(O)c2ccc(O)cc2)CCN(C)C1 (stereo not drawn)
5. Cc1cnc2c(c1)c1c(n2CCc2ccc(C)nc2)CCN2CCCCC12 (single isomer, unassigned) [IV-8a]

Result:
[98, 22, 39, 83, 49]

Could I get Percentage inhibition of ligand binding, Adrenergic α1B (0.1 μM) for every one of these entries?
1. C/C(=C\n1c2c(c3cc(C)ccc31)CN(C)CC2)c1ccncn1
2. Cc1cc2c3c(n(CC(C)(O)c4cccnc4)c2cc1Cl)CCN(C)C3 (single isomer, unassigned) [II-123b]
3. CC(O)(Cn1c2c(c3cc(Cl)ccc31)CNCC2)c1cccnc1 (single isomer, unassigned) [175b]

Result:
1: 79; 2: 61; 3: 4

Query: Entry Cc1cnc2c(c1)c1c(n2CC(O)c2ccncc2)CCN2CCCC12 (single isomer, unassigned) [IV-209b] needs its Percentage inhibition of ligand binding, Adrenergic α1B (0.1 μM) filled in; supply it.
Result: 11
